These data points were gathered from ChEMBL document CHEMBL1201862.

Kindly state GI50 for each of the entries shown.
Tested on: MDA-MB-435
Experiment: NCI tumour cell line growth inhibition, 48 h
Active and inactive are the calls of the source. Cut-off read from the data, not from the text of the source: active = GI50 up to about 1.1 µM and inactive = higher.

[[record]]
compound = "CCOC(=O)c1cc(C(=O)c2ccccc2)n2nc(-c3ccc(Cl)cc3)ccc12"
tgt = "MDA-MB-435"
value_kind = "GI50"
reading = "33.6 µM (inactive)"

[[record]]
compound = "Cc1noc2nnn(-c3ccc(Cl)cc3)c(=O)c12"
tgt = "MDA-MB-435"
value_kind = "GI50"
reading = "2.95 µM (inactive)"

[[record]]
compound = "C=CCCCC1CCCNC1=S (configuration not stated)"
tgt = "MDA-MB-435"
value_kind = "GI50"
reading = "> 100 µM (inactive)"

[[record]]
compound = "O=c1c2c(F)c(F)c(F)c(F)c2sc2nccn12"
tgt = "MDA-MB-435"
value_kind = "GI50"
reading = "14.9 µM (inactive)"

[[record]]
compound = "COc1cc2c[n+](C)c3c4cc(OC)c(OC)cc4ccc3c2cc1OC"
tgt = "MDA-MB-435"
value_kind = "GI50"
reading = "> 100 µM (inactive)"

[[record]]
compound = "COC(=O)[C@@H](NC1(c2ccccc2)c2ccccc2-c2ccccc21)[C@H](OC(=O)[C@H]1CCCN1S(=O)(=O)c1ccccc1)C(=O)OC"
tgt = "MDA-MB-435"
value_kind = "GI50"
reading = "> 100 µM (inactive)"


Proceed to the following item.
I am curious: what GI50 value has been reported for COC(=O)CCc1cc(OC)c(O)c(C(Cc2ccc(OC)c(OC)c2)C(=O)OC)c1 (configuration not stated) ?
> 100 µM (inactive)
